Cited source: PubChem BioAssay (Tox21)

assay_method_text: qHTS assay for identifying genotoxic compounds that show differential cytotoxicity against isogenic chicken DT40 cell lines with known DNA damage response pathways - Rad54/Ku70 mutant cell line (AID 743015); note: nearly all actives have a fitted effect of over 60% in size
recorded_conditions: DT40 Rad54/Ku70 mutant viability, CellTiter-Glo, 40 h; series mostly up to 66.8 µM
Inconclusive results are not listed. Calls of active or inactive are those of the source. Calls come from the whole dose curve; as a rule, active = well fitted cell-killing curve with a large enough effect in the repeat runs; inconclusive = weak or mixed curves; inactive = no such curve, though single readings can be large or run the other way.
Write down the outcome that applies. Available outcomes: yes = active, no = inactive

Worked set:
compound=C[C@H](O)[C@H](O)[C@H]1CNc2nc(N)[nH]c(=O)c2N1 label=no
compound="Nc1nc2c(c(=O)[nH]1)N(C=O)C(CNc1ccc(C(=O)N[C@@H](CCC(=O)O)C(=O)O)cc1)CN2 (some centres undefined)" label=no
compound=CCCC1([C@H](O)C/C=C/[C@H]2[C@H](O)CC(=O)[C@@H]2CCCCCCC(=O)OC)CCC1 label=yes
compound="C[Se]CCC(N)C(=O)O (centres undefined)" label=no
compound="OCC(O)COc1ccc(Cl)cc1 (centres undefined)" label=no
compound=C=C1CC[C@@H]2[C@](C)(CO)[C@H](O)CC[C@@]2(C)[C@@H]1C/C=C1/C(=O)OC[C@H]1O label=yes
compound="COc1cc([C@@H]2c3cc4c(cc3C(O[C@@H]3O[C@@H]5COC(c6cccs6)O[C@H]5[C@H](O)[C@H]3O)C3COC(=O)[C@@H]32)OCO4)cc(OC)c1O (some centres undefined)" label=yes
compound=CCCC(CCC)C(N)=O label=no

// switching to the query compound
Asked: How was `NCCCC[C@H](N)C(=O)O` classified in this test?
Given back: no

---

experimental_system: Aryl hydrocarbon receptor (Homo sapiens) (UniProt P35869)
Sequence (P35869 whole entry, looked up): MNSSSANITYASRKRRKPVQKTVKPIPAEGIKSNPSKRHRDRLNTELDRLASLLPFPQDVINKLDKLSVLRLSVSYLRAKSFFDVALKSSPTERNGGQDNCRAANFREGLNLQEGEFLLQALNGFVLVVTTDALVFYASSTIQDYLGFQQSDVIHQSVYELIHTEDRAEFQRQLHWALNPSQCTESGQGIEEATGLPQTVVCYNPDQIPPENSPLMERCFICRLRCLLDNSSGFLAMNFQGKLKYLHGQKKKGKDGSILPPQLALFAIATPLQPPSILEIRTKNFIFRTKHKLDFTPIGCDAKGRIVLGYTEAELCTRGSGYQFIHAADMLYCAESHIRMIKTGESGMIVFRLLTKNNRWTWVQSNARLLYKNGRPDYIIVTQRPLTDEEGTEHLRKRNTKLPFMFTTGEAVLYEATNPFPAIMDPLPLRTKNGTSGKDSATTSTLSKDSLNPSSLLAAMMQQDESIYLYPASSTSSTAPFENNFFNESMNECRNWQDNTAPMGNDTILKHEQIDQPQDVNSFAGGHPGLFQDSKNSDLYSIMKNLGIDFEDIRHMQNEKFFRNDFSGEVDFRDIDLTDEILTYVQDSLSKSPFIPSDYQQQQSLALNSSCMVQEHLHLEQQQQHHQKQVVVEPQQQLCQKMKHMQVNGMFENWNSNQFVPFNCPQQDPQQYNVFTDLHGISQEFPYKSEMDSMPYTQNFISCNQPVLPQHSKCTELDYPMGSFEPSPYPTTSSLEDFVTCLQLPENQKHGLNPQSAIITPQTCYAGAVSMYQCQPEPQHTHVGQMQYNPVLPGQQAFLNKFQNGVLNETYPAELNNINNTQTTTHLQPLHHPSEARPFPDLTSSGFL
assay_method_text: qHTS assay to identify small molecule that activate the aryl hydrocarbon receptor (AhR) signaling pathway (AID 743085);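 note: HG2L7.5c1 human HepG2 liver cells with stably integrated DRE-driven firefly reporter; nearly all actives have a fitted effect of over 15% in size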
recorded_conditions: HepG2 AhR-luc (HG2L7.5c1), luciferase, 24 h; series mostly up to 70.3 µM
Inconclusive results are not listed. Calls of active or inactive are those of the source. Calls come from the whole dose curve; as a rule, active = well fitted activation curve with a large enough effect in the repeat runs; inconclusive = weak or mixed curves; inactive = no such curve, though single readings can be large or run the other way.
measured_endpoint: outcome

Solved entries:
compound=CC(=O)Nc1ccc(OC(=O)c2ccccc2O)cc1 experimental_system="Aryl hydrocarbon receptor (Homo sapiens) (UniProt P35869)" measured_endpoint=outcome value=inactive
compound=CC(=O)OC[C@H]1O[C@@H](O[C@H]2[C@H](O)[C@@H](OC(=O)c3ccccc3C(=O)O)[C@H](O)O[C@@H]2COC(C)=O)[C@H](O)[C@@H](OC(=O)c2ccccc2C(=O)O)[C@@H]1O experimental_system="Aryl hydrocarbon receptor (Homo sapiens) (UniProt P35869)" measured_endpoint=outcome value=inactive
compound=CN(C)CC/C=C1/c2ccccc2CSc2ccccc21 experimental_system="Aryl hydrocarbon receptor (Homo sapiens) (UniProt P35869)" measured_endpoint=outcome value=inactive
compound=C=C[C@]1(C)C[C@@H](OC(=O)CSCCN(CC)CC)[C@]2(C)[C@H](C)CC[C@]3(CCC(=O)[C@H]32)[C@@H](C)[C@@H]1O experimental_system="Aryl hydrocarbon receptor (Homo sapiens) (UniProt P35869)" measured_endpoint=outcome value=inactive
compound=CC(C)(C)CC(=O)OCC(=O)[C@@]12OC(C)(C)O[C@@H]1C[C@H]1[C@@H]3CCC4=CC(=O)C=C[C@]4(C)[C@@]3(F)[C@@H](O)C[C@@]12C experimental_system="Aryl hydrocarbon receptor (Homo sapiens) (UniProt P35869)" measured_endpoint=outcome value=inactive

Asked: Given the entry `C#C[C@]1(O)CC[C@H]2[C@@H]3CCC4=C/C(=N/O)CC[C@@H]4[C@H]3CC[C@@]21CC` , what outcome was observed with Aryl hydrocarbon receptor (Homo sapiens) (UniProt P35869)?
Given back: inactive

Asked: Given the entry `C=CCSSSCC=C` , what outcome was observed with Aryl hydrocarbon receptor (Homo sapiens) (UniProt P35869)?
Given back: inactive

Asked: Given the entry `CN=C(NC)NCc1ccccc1` , what outcome was observed with Aryl hydrocarbon receptor (Homo sapiens) (UniProt P35869)?
Given back: inactive

Asked: Given the entry `CCCCC/C=C\C/C=C\C/C=C\CCCCC(=O)O` , what outcome was observed with Aryl hydrocarbon receptor (Homo sapiens) (UniProt P35869)?
Given back: inactive
